target: Glc(a1-6)Glc(a1-6)Glc; assay: glycan array binding signal (z-score within array); higher = stronger binding; settings: glycan notation: IUPAC condensed, linker removed
This is one part of a sample in which the strongest signals are shown more often than they occur.
reported.property: glycan array binding signal (z-score)
Lab note: write the figure by itself, no unit.

Look over these answered cases.
binder	reported.property	experimental.value
CBM32-1 (Clostridium perfringens) (protein) MGSSHHHHHHSSGLVPRGSHMASGVEITEGVTVTAKGNTEGNTADLAIDGDLSTYWESSNDYKWIEVDLGGIYELSKIEIFNKDEAVYKYNIYASEDGENFNKIAYKNNDNVSDSNGNVHTIDNVRAGKIRIDVVQNSNSDRVNIAEINVFG	glycan array binding signal (z-score)	-0.279
GST Gap3 (Streptococcus parasanguinis) (protein) MTKQLISEIYWNEIRKGENYLYGSQIKFQEDLVNFYNPQLASGKPIVTFKSRTNYQGDRHSPDLPILIQGNRYLLEYQIDAVPANSFFLQLDFFNRQAEQIESIVLRNSGESFIFPKDTFTYTLTLMSAGCQSVTYQKFMIYDINDEEKKNHIVENRYLRELLPKDLDLVKNLIEYI	glycan array binding signal (z-score)	0.005

Please examine the following record next.
IN: Look at this binder and give its reported glycan array binding signal (z-score). FimA-N2 (Actinomyces oris) (protein) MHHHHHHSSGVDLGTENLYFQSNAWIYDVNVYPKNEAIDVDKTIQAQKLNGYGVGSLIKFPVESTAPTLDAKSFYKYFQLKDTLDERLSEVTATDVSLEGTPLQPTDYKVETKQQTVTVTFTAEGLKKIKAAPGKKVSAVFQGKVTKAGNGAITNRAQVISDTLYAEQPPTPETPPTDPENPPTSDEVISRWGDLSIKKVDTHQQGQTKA
OUT: -0.88
